Cited source for all entries: patent US20200317776A1

# Target of assay: T1, cynomolgus monkey TREM2 Fc fusion (entire TREM2 ECD; only one Fc arm fused to TREM2) (cynomolgus monkey, UniProt Q9NZC2 19-174 (human entry))
# T1 construct: also called cyno TREM2-Fc
# T1 chain: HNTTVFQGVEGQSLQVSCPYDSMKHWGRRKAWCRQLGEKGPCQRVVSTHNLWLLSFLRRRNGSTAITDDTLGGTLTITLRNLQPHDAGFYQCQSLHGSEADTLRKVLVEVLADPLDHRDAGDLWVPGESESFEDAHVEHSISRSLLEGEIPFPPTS
# Assay name: BLI, Fab, monovalent
Measured quantity: pKd
In simple prose, pKd is minus the logarithm base ten of a concentration in moles per litre.

Worked cases, answers included:
[
  {
    "Binder": "AL2p-47 (antibody, V domains shown, Fab and IgG formats under one id (explicit huIgG1 is m97); also called AL2-47) VH: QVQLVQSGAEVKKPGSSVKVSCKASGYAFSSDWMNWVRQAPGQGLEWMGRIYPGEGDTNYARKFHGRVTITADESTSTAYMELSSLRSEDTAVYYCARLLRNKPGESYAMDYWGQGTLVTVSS VL: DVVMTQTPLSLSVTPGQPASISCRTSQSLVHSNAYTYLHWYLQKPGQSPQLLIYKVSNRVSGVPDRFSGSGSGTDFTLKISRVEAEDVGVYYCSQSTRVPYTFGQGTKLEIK",
    "pKd": 7.79
  },
  {
    "Binder": "AL2p-30 (antibody, V domains shown, Fab and IgG formats under one id) VH: QVQLVQSGAEVKKPGSSVKVSCKASGYAFSSQWMNWVRQAPGQGLEWMGRIYPGDGDTNYAWKFQGRVTITADESTSTAYMELSSLRSEDTAVYYCARLLRNQPGESYAMDYWGQGTLVTVSS VL: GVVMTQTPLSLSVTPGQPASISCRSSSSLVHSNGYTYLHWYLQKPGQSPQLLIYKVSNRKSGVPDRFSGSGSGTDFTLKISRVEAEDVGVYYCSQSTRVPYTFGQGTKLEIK",
    "pKd": 8.25
  }
]

Let us examine a further case.
Inquiry: Can you share its pKd? I mean this binder: AL2p-59 (antibody, V domains shown, Fab and IgG formats under one id) VH: QVQLVQSGAEVKKPGSSVKVSCKASGYAFSSHWMNWVRQAPGQGLEWMGRIYPGEGQTNYAQKRQGRVTITADESTSTAYMELSSLRSEDTAVYYCARLLRNQPGESYAMDYWGQGTLVTVSS VL: GVVMTQTPLSLSVTPGQPASISCRTSQSLVHSNQYTYLHWYLQKPGQSPQLLIYKVSNRVSGVPDRFSGSGSGTDFTLKISRVEAEDVGVYYCSQSTRVPYTFGQGTKLEIK
Reply text: 8.40
